Source of measurements: paper PMC11249646

# TARGET: CIB1 and αIIb interaction (CIB1-GST : F-αIIb peptide) (Homo sapiens, UniProt Q99828)
# Construct: made in house; host or cells: BL-21 plus RIL cells (E. coli)
# EXPERIMENT NOTES: FP assay, 1536-well qHTS format (primary and confirmatory screen)
# Type: binding
# CONDITIONS: qHTS primary screen hits, Table S2; negative sign = inhibitory curve; several classes where COUNT > 1
Curve Class overview
Answer as a number with no unit attached.

Request: Which value of Curve Class has been reported for OCCCc1ccccc1 [NCGC00165987-03] in the records?
Response: -2.2

====

# TARGET: GST-CIB1 : F-scrambled peptide (Homo sapiens, UniProt Q99828)
# Construct: made in house; host or cells: BL-21 plus RIL cells (E. coli)
# Sequence (Q99828 1-191): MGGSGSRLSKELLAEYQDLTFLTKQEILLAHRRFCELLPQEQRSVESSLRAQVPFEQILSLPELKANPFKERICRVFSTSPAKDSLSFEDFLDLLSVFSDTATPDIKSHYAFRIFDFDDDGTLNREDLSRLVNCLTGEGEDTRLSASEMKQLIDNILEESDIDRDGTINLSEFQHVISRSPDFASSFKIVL
# EXPERIMENT NOTES: FP scrambled-peptide counter screen, 384-well format
# Assay type: binding
# CONDITIONS: F-scrambled peptide
Rule: 384-well COUNTERSCREEN Efficacy (%) under 40% gives Condition not met, otherwise Condition met.

Worked set:
COMPOUND	CLASSIFICATION
O=C(Nc1nc(-c2ccccc2)cs1)c1ccncc1NS(=O)(=O)c1ccc2ccccc2c1.O=C(O)C(F)(F)F	Condition met
O=c1sc2ccccc2c(O)c1C1CC(c2ccc(-c3ccc(Br)cc3)cc2)Cc2ccccc21 (stereo not shown)	Condition met
CCc1nnc(NS(=O)(=O)c2ccc(NC(=S)NC(=O)/C=C/c3ccc(F)cc3)cc2)s1	Condition not met
O=C(O)c1cccc(CN2C(=O)/C(=C(\c3ccccc3)c3ccc(Cl)cc3)c3ccccc32)c1	Condition not met
O=C1C=CC(=O)N1c1cccc(Br)c1	Condition met

Request: Evaluate `CCc1ccc(S(=O)(=O)Nc2cnccc2C(=O)Nc2nc(-c3ccccc3)cs2)cc1.O=C(O)C(F)(F)F` : 384-well COUNTERSCREEN Efficacy (%) at minimum 40%?
Response: Condition met

====

# TARGET: CIB1 and αIIb interaction (CIB1-GST : F-αIIb peptide) (Homo sapiens)
# Construct: made in house; host or cells: BL-21 plus RIL cells (E. coli)
# Sequence (Q99828 1-191): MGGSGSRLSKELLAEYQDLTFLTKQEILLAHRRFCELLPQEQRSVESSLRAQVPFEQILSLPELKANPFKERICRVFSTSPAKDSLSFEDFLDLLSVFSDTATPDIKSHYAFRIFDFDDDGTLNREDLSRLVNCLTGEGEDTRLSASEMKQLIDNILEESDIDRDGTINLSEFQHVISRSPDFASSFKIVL
# EXPERIMENT NOTES: FP assay, 1536-well qHTS format (primary and confirmatory screen)
# Format: binding
# CONDITIONS: qHTS primary screen hits, Table S2; negative = inhibition
Rule: Efficacy (%) under -30% gives 0 (no), otherwise 1 (yes).

COMPOUND	TARGET	CLASSIFICATION
CN(CC(=O)Nc1ccc(N2CCOCC2)cc1)Cc1c(O)ccc2ccccc12.O=C(O)C(F)(F)F [NCGC00229682-01]	CIB1 and αIIb interaction (CIB1-GST : F-αIIb peptide) (Homo sapiens)	0 (no)
O=C(O)C(F)(F)F.O=C1CCCC2=C1C(c1ccn[nH]1)N=C(Nc1nc3ccccc3o1)N2 (stereo not shown) [NCGC00229725-01]	CIB1 and αIIb interaction (CIB1-GST : F-αIIb peptide) (Homo sapiens)	0 (no)
O=C([O-])c1c(Cl)c(Cl)c(Cl)c(Cl)c1-c1c2cc(I)c(=O)c(I)c-2oc2c(I)c(O)c(I)cc12.[Na+] [NCGC00159508-05]	CIB1 and αIIb interaction (CIB1-GST : F-αIIb peptide) (Homo sapiens)	1 (yes)
CCCCn1nc(-c2ccccc2)c2nc3ccccc3nc21.O=C(O)C(F)(F)F [NCGC00351644-02]	CIB1 and αIIb interaction (CIB1-GST : F-αIIb peptide) (Homo sapiens)	0 (no)
Fc1cc(Nc2nc(-c3ccncc3)nc3ccccc23)ccc1N1CCNCC1.O=C(O)C(F)(F)F [NCGC00345204-01]	CIB1 and αIIb interaction (CIB1-GST : F-αIIb peptide) (Homo sapiens)	0 (no)

Request: Evaluate O=C(Nc1nc(-c2ccccc2)cs1)c1ccncc1NS(=O)(=O)c1ccc2ccccc2c1.O=C(O)C(F)(F)F [NCGC00345031-01] : Efficacy (%) at minimum -30%?
Response: 0 (no)

Request: Evaluate Nc1ccn(C2CO[C@H](CO)O2)c(=O)n1 (stereo partly shown) [NCGC00183848-01] : Efficacy (%) at minimum -30%?
Response: 0 (no)

====

# TARGET: GST-CIB1 : F-scrambled peptide (Homo sapiens, UniProt Q99828)
# Construct: made in house; host or cells: BL-21 plus RIL cells (E. coli)
# EXPERIMENT NOTES: FP scrambled-peptide counter screen, 1536-well format
# Type: binding
# CONDITIONS: scrambled-peptide counterscreen
QUANTITY MEASURED: COUNTERSCREEN Efficacy (%)
// note: answer is a bare numeric in %

Request: Which value of COUNTERSCREEN Efficacy (%) has been reported for CCOC(=O)c1c(NC(=O)C2CC(Cl)=CCC2C(=O)O)sc2c1CCCCC2.O=C(O)C(F)(F)F (stereo not shown) in the records?
Response: 16

====

# TARGET: GST-CIB1 : F-scrambled peptide (Homo sapiens, UniProt Q99828)
# Construct: made in house; host or cells: BL-21 plus RIL cells (E. coli)
# EXPERIMENT NOTES: FP scrambled-peptide counter screen, 1536-well format
# Assay type: binding
# CONDITIONS: scrambled-peptide counterscreen, qHTS curve class
QUANTITY MEASURED: COUNTERSCREEN Curve Class

Here is how some compounds turned out for COUNTERSCREEN Curve Class.
COMPOUND	COUNTERSCREEN Curve Class
Cc1ccc(S(=O)(=O)Nc2cnccc2C(=O)Nc2nc(-c3cccc(C)c3)cs2)cc1.O=C(O)C(F)(F)F [NCGC00343524-02]	4
Cc1ccc(-c2cc(-c3nn(-c4nc(C(=O)O)cs4)c(CC4CC4)c3Cc3ccc(S(N)(=O)=O)c(F)c3)ccc2F)s1.Cl [NCGC00388587-02]	4
O=C(Nc1nc(-c2ccccc2)cs1)c1ccncc1NS(=O)(=O)c1ccc2ccccc2c1.O=C(O)C(F)(F)F [NCGC00345031-01]	3
O=C(Nc1nc(-c2ccccc2)cs1)c1ccncc1NS(=O)(=O)c1ccccc1Cl.O=C(O)C(F)(F)F [NCGC00344943-01]	4
COc1cccc(-n2c(SCc3cc(=O)oc4cc(O)c(O)cc34)nc3ccccc3c2=O)c1.O=C(O)C(F)(F)F [NCGC00371345-01]	-2.4
O=S(=O)(c1ccc2nc(Cl)c(Cl)nc2c1)N1CCN(S(=O)(=O)c2c(F)cccc2F)CC1 [NCGC00182436-01]	4

Proceed to the following item.
Request: Which value of COUNTERSCREEN Curve Class has been reported for CC(C)(C)c1ccc(SC2=NS(=O)(=O)c3ccccc32)cc1 [NCGC00189495-01] in the records?
Response: 4

====

# TARGET: GST-CIB1 : F-scrambled peptide (Homo sapiens)
# Construct: made in house; host or cells: BL-21 plus RIL cells (E. coli)
# EXPERIMENT NOTES: FP scrambled-peptide counter screen, 1536-well format
# Type: binding
# CONDITIONS: scrambled-peptide counterscreen
QUANTITY MEASURED: COUNTERSCREEN Efficacy (%)
// note: answer is a bare numeric in %

Request: Which value of COUNTERSCREEN Efficacy (%) has been reported for `COC(=O)c1ccc2c(c1)S(=O)(=O)N=C2Sc1cc(C)ccc1C` in the records?
Response: -10

Request: Which value of COUNTERSCREEN Efficacy (%) has been reported for `CCc1oc2ccccc2c1C(=O)c1cc(Br)c(O)c(Br)c1` in the records?
Response: 52

Request: Which value of COUNTERSCREEN Efficacy (%) has been reported for `Cn1sc(=O)n(Cc2ccccc2)c1=O` in the records?
Response: -22

Request: Which value of COUNTERSCREEN Efficacy (%) has been reported for S=C(SSC(=S)N1CCCCC1)N1CCCCC1 [NCGC00181776-02, dipentamethylenethiuram disulfide] in the records?
Response: 0

Request: Which value of COUNTERSCREEN Efficacy (%) has been reported for `COc1ccccc1S(=O)(=O)Nc1cnccc1C(=O)Nc1nc(-c2ccccc2)cs1.O=C(O)C(F)(F)F` in the records?
Response: -15

Request: Which value of COUNTERSCREEN Efficacy (%) has been reported for `COc1ccccc1C(=O)c1no[n+]([O-])c1C(=O)c1ccccc1OC.O=C(O)C(F)(F)F` in the records?
Response: -14

Request: Which value of COUNTERSCREEN Efficacy (%) has been reported for `Cc1ccc(S(=O)(=O)Nc2cnccc2C(=O)Nc2nc(-c3cccc(C)c3)cs2)cc1.O=C(O)C(F)(F)F` in the records?
Response: 14

Request: Which value of COUNTERSCREEN Efficacy (%) has been reported for `O=C(Cc1ccc(Cl)c(Cl)c1)Nc1ccc(S(=O)(=O)Nc2nnc(-c3ccccn3)s2)cc1.O=C(O)C(F)(F)F` in the records?
Response: -73
